Data credit: PubChem BioAssay AID430

Test: cytotoxicity in HPDE-C7 cells, cell-based, fluorescence, HTS (AID 430);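 further: cells exposed to compound for 48 hours before viability readout; 0% = vehicle and 100% = reference cytotoxic drug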
Conditions: HPDE-C7 pancreatic duct cells viability, at 10 µM, active compounds read high
Screen size: about 63,000 compounds; about 1,100 (1.7%) were called active. For the sample, actives were picked, then their nearest neighbours and some compounds at random. Measured potencies and affinities stand elsewhere.

| molecule | cytotoxicity / % |
| --- | --- |
| COC(=O)c1cc2occc2n1CC(=O)Nc1ccc(OC)c(OC)c1 | -0.3 |
| Cc1cc(N2C(=O)C3C4C=CC(C4)C3C2=O)no1 (configuration not stated) | -1 |
| N#Cc1ccc(-c2ccco2)nc1SCC(=O)c1ccc(Cl)cc1 | 21.1 |
| COc1ccc(CCN2CC(C(=O)O)CC2=O)cc1 (configuration not stated) | 1.2 |
| C=C(C)CSc1nc2nc(C)cc(C)n2n1 | 9.4 |
| COC(=O)c1ccccc1OC(=O)c1ccc(Br)o1 | 7.5 |
| FC(F)Oc1cccc2cccnc12 | -5.8 |
| O=C(O)CCC(=O)Nc1ccccc1C(=O)NC1CCCCC1 | -16.8 |
| O=C(O)c1ccccc1NS(=O)(=O)c1cccc2cccnc12 | 21.6 |
| CCCCNS(=O)(=O)c1ccc2nc(SCC(=O)c3ccc(C#N)cc3)[nH]c2c1 | 5.7 |
| C=CCNC(=O)CCCCC(=O)NCC=C | -16.1 |
| CCCCNS(=O)(=O)c1ccc2nc(SCC(=O)Nc3sccc3C#N)[nH]c2c1 | 88.6 |

* * *

Assay: cytotoxicity in HPDE-C7 cells, cell-based, fluorescence, HTS (AID 430);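 further: cells exposed to compound for 48 hours before viability readout; 0% = vehicle and 100% = reference cytotoxic drug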
Conditions: HPDE-C7 pancreatic duct cells viability, at 10 µM, active compounds read high
About 1,100 (1.7%) of roughly 63,000 compounds were called active. The entries come from a sample that favours actives as a whole. Measured potencies and affinities stand elsewhere.
Reported cytotoxicity values follow for various compounds

| compound | cytotoxicity / % |
| --- | --- |
| O=C(Nc1ccc(C(F)(F)F)cc1Cl)c1ccc(Cn2cc(Br)cn2)o1 | 63.2 |
| CCC(CC)C(=O)Nc1cc(NC(=O)C(CC)CC)cc(C(=O)O)c1 | -16.6 |
| CCc1nc2ccccc2n1CC(=O)N(C(C)CC)C1CCS(=O)(=O)C1 (stereo not drawn) | -20.3 |
| COc1cccc(N2CCN(CC(=O)Nc3nnc(-c4ccccc4)s3)CC2)c1 | 21.2 |
| Nc1c(C(=O)NC2CCCCC2)c2nc3ccccc3nc2n1/N=C/c1ccco1 | 5.1 |
| COC(=O)CSc1nc(-c2cccs2)ccc1C#N | 29.9 |
| CCc1[nH]c(C)c(C(C)=O)c1C | 59.8 |
| O=C1C(Cl)=C(NCCCN2CCOCC2)C(=O)N1CCc1ccccc1 | 1.4 |
| Cc1nc2ccccc2c(=O)n1/N=C/c1ccc(O)cc1 | 33.8 |
| CC(=O)c1sc(NC(=O)c2ccc(Cn3cc(Br)cn3)o2)nc1C | 3.3 |
| COc1ccc(-n2c(Cc3cccn3C)nnc2SCC(=O)NC2CCCC2)cc1 | -16 |
| Cc1nc2ccccc2c(=O)n1/N=C/c1c(O)ccc2oc3c(c12)CCCC3 | 63 |
| Cc1nnc(SCCn2c(N3CCN(C)CC3)nc3c2c(=O)n(C)c(=O)n3C)s1 | -5.2 |
| Cc1cccc2cc(CN(CC3CCCO3)C(=O)NC3CCCCC3)c(=O)[nH]c12 (stereo not drawn) | -7.6 |
| Cc1cc(Cl)ccc1N=Cc1c(O)n(C)c(=O)n(C)c1=O | -4.4 |
| Nc1c(C(=O)NC2CCCC2)c2nc3ccccc3nc2n1N | 11.6 |
| O=S(=O)(c1cccc2cccnc12)N1CCc2ccccc21 | -5.3 |
| CC(C)Cn1c(N)c(C(=O)NCC2CCCO2)c2nc3ccccc3nc21 (stereo not drawn) | 26.3 |
| Oc1ccc2oc3c(c2c1/C=N/n1cnnc1)CCCC3 | -15.1 |
| COc1ccc(-n2c(SCCC#N)nnc2-c2cc(Cl)ccc2OC)cc1Cl | 50.2 |
| COCCn1c(SCC(=O)Nc2cccc(C)c2)nnc1C(C)C | 1 |
| O=C(OCC(=O)N(C1CCCCC1)C1CCCCC1)c1ccncc1 | 4.3 |
| COCCn1c(N)c(C(=O)NCC2CCCO2)c2nc3ccccc3nc21 (stereo not drawn) | 11.4 |

* * *

Experiment: cytotoxicity in HPDE-C7 cells, cell-based, fluorescence, HTS (AID 430);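 further: cells exposed to compound for 48 hours before viability readout; 0% = vehicle and 100% = reference cytotoxic drug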
Conditions: HPDE-C7 pancreatic duct cells viability, at 10 µM
In all, about 63,000 compounds went through this assay and about 1,100 (1.7%) were called active. Cut-off read from the data, not from the text of the source: active = cytotoxicity above about 50%; inactive = the rest. The list comes from a sample in which actives are over-represented; it also holds close analogues and randomly drawn compounds. Potency and affinity values are given separately.
Outcomes: true (active), false (inactive)

| molecule | category.label |
| --- | --- |
| O=C(O)CCC(=O)N1CCc2cc(S(=O)(=O)NC3CCCc4ccccc43)ccc21 (stereo not drawn) | false |
| COc1ccc(NC(C)=O)cc1NC(=O)CSc1nnc(-c2ccccc2)n1N | false |
| Cc1cc(=O)[nH]c(SCc2cc(=O)n3nc(C)sc3n2)n1 | false |
| Cc1cc(C)n(-c2nncc(-c3ccccc3)n2)n1 | false |
| COc1ccc(S(=O)(=O)CCC(=O)Nc2c(C)n(C)n(-c3ccccc3)c2=O)cc1 | false |
| COc1ccccc1-n1c(SCC(=O)N2CCCCC2)nc2cccnc21 | false |
| CC(C)NC(=O)c1cnc(N2CCN(c3ccccn3)CC2)c2ccccc12 | false |
| COc1ccc(NC(=O)CSc2nc3c(c(=O)n2-c2ccc(F)cc2)SCC3)cc1 | false |
| O=C(NCc1ccco1)c1cc(-c2ccc(Cl)cc2)on1 | false |
| COc1ccc(-c2nnc(SCC(=O)Nc3cc(C)on3)n2C)cc1OC | false |
| Cc1cccc(N2CCN(C(=O)c3ccc(N4CCCC4=O)cc3)CC2C)c1 (stereo not drawn) | false |
| CN(C)CCOc1nc(-c2ccccc2)nc2c1oc1ccccc12 | true |
| CC1CC(C)CN(C(=O)c2cn(C)c3ccc(S(=O)(=O)N(C)C)cc3c2=O)C1 (stereo not drawn) | false |
| Cc1cc(C)c2c(CN3CCN(C)CC3)cc(=O)oc2c1 | false |
| Cc1ccc(S(=O)(=O)Nc2cccc(-c3cn4ccsc4n3)c2)cc1 | true |
| C=CCn1c(-c2cc(OC)c(OC)c(OC)c2)n[nH]c1=S | false |
| Cc1ccc(CS(=O)(=O)CCC(=O)NCCN2CCCCC2C)cc1 (stereo not drawn) | false |
| COCCn1c(SCC(=O)Nc2nnc(C)s2)nnc1-c1cc2ccccc2cc1O | false |
| O=C(O)CCCC(=O)Nc1ccccc1Br | false |
| CCCS(=O)(=O)N1CCCC(C(=O)N2CCC(Cc3ccccc3)CC2)C1 (stereo not drawn) | false |
| Cc1ccc(CCNC(=O)c2coc3nc4ccccc4nc23)cc1 | false |
| CS(=O)(=O)N1CCC(C(=O)N2CCC(Cc3ccccc3)CC2)CC1 | false |
| Cc1cc(C)cc(OCc2nnc(SCC(=O)c3ccc(Br)cc3)o2)c1 | false |

* * *

Experiment: cytotoxicity in HPDE-C7 cells, cell-based, fluorescence, HTS (AID 430);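 further: cells exposed to compound for 48 hours before viability readout; 0% = vehicle and 100% = reference cytotoxic drug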
Details: HPDE-C7 pancreatic duct cells viability, at 10 µM, active compounds read high
In all, about 63,000 compounds went through this assay and about 1,100 (1.7%) were called active. The full list was thinned out, with actives kept by preference. Potency and affinity values are given separately.
readout.label: cytotoxicity (%)

| compound | readout.label | quantity.unit | data.value |
| --- | --- | --- | --- |
| Cc1cc(NC(=O)c2ccc(S(=O)(=O)N(C)C)cc2)no1 | cytotoxicity | % | -5.2 |
| COc1cc(NC(=O)c2ccco2)ccc1NC(=O)c1ccccc1Cl | cytotoxicity | % | 2.8 |
| COC(=O)c1c(C)nn(-c2ccccc2)c1N | cytotoxicity | % | 4.7 |
| CCCCSCCCNC(=O)CS(=O)Cc1nc(-c2cccc(C)c2)oc1C (centres undefined) | cytotoxicity | % | -17.4 |
| COc1ccc(C(=O)N(Cc2ccco2)Cc2cc3cc(C)ccc3[nH]c2=O)cc1OC | cytotoxicity | % | 4.2 |
| COc1ccc(CNC(=O)c2csnn2)cc1 | cytotoxicity | % | -14.5 |
| O=C(Nc1ccccc1N1CCN(c2ccc(F)cc2)CC1)C1CCCCC1 | cytotoxicity | % | -6.3 |
| COc1ccccc1N1CCN(C(=O)N2CCOCC2)CC1 | cytotoxicity | % | -6.9 |
| O=C(Nc1ccc(N2CCOCC2)cc1)c1ccc2nc(-c3ccco3)c(-c3ccco3)nc2c1 | cytotoxicity | % | -9.4 |
| O=c1c(C=NCCCn2ccnc2)c(-c2ccccc2)[nH]n1-c1nc2ccccc2s1 | cytotoxicity | % | 57.5 |
| COc1cc(C(=O)Nc2cccc(-c3nncn3C)c2)cc(OC)c1OC | cytotoxicity | % | -13.4 |
| CCOc1c(OC)cccc1C1CC(=O)Nc2cc3c(cc21)OCCO3 (centres undefined) | cytotoxicity | % | 13.7 |
| CCCCNC(=O)CS(=O)Cc1nc(-c2cccc(C)c2)oc1C (centres undefined) | cytotoxicity | % | 0.4 |
| CCOc1ccccc1C1CC(=O)NC2=C1C(=O)CC(C)(C)C2 (centres undefined) | cytotoxicity | % | 9.7 |
| Cc1ccc(S(=O)(=O)N2CCC(C(=O)Nc3nnc(COc4ccccc4)s3)CC2)cc1 | cytotoxicity | % | -3.6 |
| O=S(=O)(c1ccc(Oc2ccc(-c3nnco3)cc2)nc1)N1CCC(Cc2ccccc2)CC1 | cytotoxicity | % | 62.7 |
| COC(=O)c1cc(=O)n(Cc2ccc3c(c2)OCO3)c(=Nc2ccccc2)s1 | cytotoxicity | % | 34.9 |
| CC(C)(C)NC(=O)CSc1nnc(-c2ccco2)n1Cc1ccco1 | cytotoxicity | % | -15.8 |
| O=C(c1cc2nc(-c3ccco3)cc(C(F)(F)F)n2n1)N1CCN(c2ccccc2)CC1 | cytotoxicity | % | -3 |
| O=c1[nH]c2ccccc2n1CCCOc1ccccc1 | cytotoxicity | % | 5 |
| COc1ccc(NS(=O)(=O)c2ccc(C)c(C(=O)O)c2)cc1 | cytotoxicity | % | 5 |
| O=C(c1ccco1)N1CCN(C(=O)c2cnn3c2NC(c2cccs2)CC3C(F)(F)F)CC1 (centres undefined) | cytotoxicity | % | -5 |
| COCCn1c(SCC(=O)OCc2ccccc2)nc2c1c(=O)[nH]c(=O)n2C | cytotoxicity | % | -3.3 |
| CN1CCN(C(=O)c2ccc3ccccc3c2)CC1 | cytotoxicity | % | -15.3 |
| O=C(OCCN1CCOCC1)c1cccnc1 | cytotoxicity | % | 0.3 |
| CCOc1c(OC)cccc1C1CC(=O)Nc2cc(OC)c(OC)cc21 (centres undefined) | cytotoxicity | % | 7.3 |
| COCCCNC(=O)c1ccc(N2CCCC2)c(NS(=O)(=O)c2ccc(C)cc2)c1 | cytotoxicity | % | -13.4 |
| COc1ccc(Cl)cc1N(CC(=O)N1CCN(Cc2ccccc2)CC1)S(C)(=O)=O | cytotoxicity | % | -0.8 |
| O=C(Nc1ccc2c(c1)CCC2)c1cnn2c1NC(c1ccco1)CC2C(F)(F)F (centres undefined) | cytotoxicity | % | -4.4 |
| CC(=NCC1CCCO1)C1=C(O)CC(C)(C)CC1=O (centres undefined) | cytotoxicity | % | -12.6 |
| CCOc1ccccc1C1CC(=O)Nc2cc(OC)c(OC)c(OC)c21 (centres undefined) | cytotoxicity | % | -16.2 |
| CCOC(=O)c1ccc(N=c2sc(C(=O)OC)cc(=O)n2CCCN2CCOCC2)cc1 | cytotoxicity | % | -17.7 |
| CCOc1nc2ccccc2nc1NS(=O)(=O)c1ccccc1 | cytotoxicity | % | 0.8 |
| CCC(=O)N1CCc2cc(Br)cc(S(=O)(=O)N3CCCCCC3)c21 | cytotoxicity | % | -12.2 |
| O=C(Nc1ccc2nc(-c3ccco3)c(-c3ccco3)nc2c1)N1CCCCCC1 | cytotoxicity | % | 29.1 |
| Cc1cccc(N(Cc2nnc3n2CCCCC3)C(=O)Nc2ccccc2)c1 | cytotoxicity | % | -21.7 |
| Cc1cccc(-c2nc(CS(=O)CC(=O)NCCCSC3CCCCC3)c(C)o2)c1 (centres undefined) | cytotoxicity | % | 56.1 |
| O=C(c1ccc2ccccc2c1)N1CCN(c2ccccc2)CC1 | cytotoxicity | % | -4.8 |
| CCN1CCN(C(C(=O)NC2CCCC2)c2ccc(Cl)cc2)CC1 (centres undefined) | cytotoxicity | % | 9.1 |
| C=C(C)COc1ccc2c3c(c(=O)oc2c1OCC(=C)C)CCC3 | cytotoxicity | % | 11.5 |
| O=C(COc1ccc(-c2nnco2)cc1)N1CCN(S(=O)(=O)c2ccc3ccccc3c2)CC1 | cytotoxicity | % | -10.1 |
| O=C(c1cnn2c1NC(c1ccco1)CC2C(F)(F)F)N1CCN(c2cccc(Cl)c2)CC1 (centres undefined) | cytotoxicity | % | 50.2 |
| Cn1c(CSc2ccccc2)c(C#N)c2ccccc21 | cytotoxicity | % | -6.2 |
| O=S(=O)(c1ccccc1)c1nc(-c2ccccc2)oc1NCc1cccnc1 | cytotoxicity | % | -3.2 |
